test name: chemical genetic growth profiling, strain panel (AID 1159580);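 note: tested at 20 µM; growth read once vehicle control cultures reached saturation at 30 °C; 1 = growth at the plate median or of vehicle wells; lower values mean less growth of the strain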
experimental conditions: S. cerevisiae deletion strains, growth OD, locus YKR026C, strain gcn3
Among all 5,500 compounds or so, about 2,000 (36%) were called active. Another 18% or so got no clear call; they are omitted. Cut-off read from the data, not from the text of the source: active = normalized growth mostly below about 0.91 (no sharp cut-off); inconclusive = no clear call, values can overlap the other calls; inactive = mostly above about 0.92. The list shows a part of the results.
Permitted responses: active, inactive

Here are 5 molecules together with their reported answers.
molecule	assigned category
CCOC(=O)c1ccc(O)cc1	inactive
CC(C)COCC(CN(Cc1ccccc1)c1ccccc1)N1CCCC1 (stereo unspecified)	inactive
O=C1[C@H](CCC(O)c2ccc(F)cc2)[C@@H](c2ccc(O)cc2)N1c1ccc(F)cc1 (stereo partly specified)	inactive
COc1cc2occ(-c3ccccc3)c(=O)c2c(OC)c1C	inactive
CO/N=C(\C(=O)N[C@@H]1C(=O)N2C(C(=O)O)=C(COC(C)=O)CS[C@H]12)c1csc(N)n1	inactive

Now take the following molecule into account.
Query: # lookup: test call for O=C1CC2OCC=C3CN4CC[C@]56c7ccccc7N1C5[C@H]2[C@H]3CC46 (stereo partly specified)
Response: inactive

----------
test name: chemical genetic growth profiling, strain panel (AID 1159580);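 note: tested at 20 µM; growth read once vehicle control cultures reached saturation at 30 °C; 1 = growth at the plate median or of vehicle wells; lower values mean less growth of the strain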
experimental conditions: S. cerevisiae deletion strains, growth OD, locus YKL160W, strain elf1
Hit rate of the full screen: of about 5,500 compounds, about 2,000 (36%) were called active. Inconclusive results (about 18%) are left out. Cut-off read from the data, not from the text of the source: active = normalized growth mostly below about 0.91 (no sharp cut-off); inconclusive = no clear call, values can overlap the other calls; inactive = mostly above about 0.92. The list shows a part of the results.
Permitted responses: 1 = active, -1 = inactive

compound	assigned category
CC(=O)OCC[C@H](C)CCC=C(C)C	-1

Query: # lookup: test call for CCOC(=O)c1ccc(O)cc1
Response: -1

Query: # lookup: test call for C#CCCCCCCCCCCCC(O)CC(O)COC(C)=O (stereo not given)
Response: 1

Query: # lookup: test call for C#CCCCCCCCCCCCC(O)CC(O)CO (stereo not given)
Response: -1

Query: # lookup: test call for CO/N=C(\C(=O)NC1C(=O)N2C(C(=O)OC(C)OC(C)=O)=C(COC(N)=O)CSC12)c1ccco1 (stereo not given)
Response: -1

Query: # lookup: test call for CO/N=C(\C(=O)N[C@@H]1C(=O)N2C(C(=O)O)=C(CSc3nc(=O)c(O)nn3C)CS[C@H]12)c1csc(N)n1
Response: -1

Query: # lookup: test call for CC(=O)OCC(OC(C)=O)C(OC(C)=O)C(OC(C)=O)C(OC(C)=O)C(COC(C)=O)OC(C)=O (stereo not given)
Response: -1

Query: # lookup: test call for CO/N=C(\C(=O)N[C@@H]1C(=O)N2C(C(=O)O)=C(COC(C)=O)CS[C@H]12)c1csc(N)n1
Response: -1

Query: # lookup: test call for C=CCCCCCCCCCCCC(O)CC(O)COC(C)=O (stereo not given) (tested in a mixture with another compound)
Response: -1

Query: # lookup: test call for CC(=O)N[C@@H](CS)C(=O)O
Response: -1

----------
test name: chemical genetic growth profiling, strain panel (AID 1159580);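 note: tested at 20 µM; growth read once vehicle control cultures reached saturation at 30 °C; 1 = growth at the plate median or of vehicle wells; lower values mean less growth of the strain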
experimental conditions: S. cerevisiae deletion strains, growth OD, locus YMR205C, strain PFK2, hits give low values
In all, about 5,500 compounds went through this assay and about 2,000 (36%) were called active. About 18% were inconclusive and are not listed. The list shows a part of the results.
measurement label: normalized growth
Respond using a number only.

Recorded results for 8 compounds are shown here.
compound	normalized growth
CO/N=C(\C(=O)NC1C(=O)N2C(C(=O)OC(C)OC(C)=O)=C(COC(N)=O)CSC12)c1ccco1 (centres undefined)	0.991
CO/N=C(\C(=O)NC1C(=O)N2C(C(=O)O)=C(COC(N)=O)CSC12)c1ccco1 (centres undefined)	0.949
Nc1ccn(C2O[C@H](CO)[C@@H](O)[C@@H]2O)c(=O)n1 (some centres undefined)	1.04
O=C1OC(c2ccc(O)cc2)(c2ccc(O)cc2)c2ccccc21	0.971
CO/N=C(\C(=O)N[C@@H]1C(=O)N2C(C(=O)O)=C(CSc3nc(=O)c(O)nn3C)CS[C@H]12)c1csc(N)n1	0.968
CCCCN1CCCCC1C(=O)Nc1c(C)cccc1C (centres undefined)	1.01
COc1ccc(CCN2CCC(Nc3nc4ccccc4n3Cc3ccc(F)cc3)CC2)cc1	0.908
CCN(CC)C(=O)c1cccc(C)c1	1.06

Query: Tell me normalized growth reported for COC(=O)[C@@H]1OC(=O)[C@H]2O[C@@]23[C@@]1(C)CCC1[C@@]2(C)CCC(=O)C(C)(C)C2C[C@@H](OC(C)=O)[C@]13C (some centres undefined)
Response: 1.01
